For each entry below, report its PAF Acether induced wheal, Surface value.
- Tested on: Sprague-Dowley rats
- TEST_SUMMARY: Cutaneous vascular hyperpermeability induced by PAF Acether in the rat
- Type: in vivo
- CONDITION_DETAILS: 1 mg/kg IV; PAF Acether 25 ng intradermal; 30 mn; p < 0.001
Give bare numbers, in mm^2.

These recorded examples may help you get a feel for the data.
# MOLECULE, OBSERVED_PROPERTY, UNIT_ANNOTATION, RESULT
records = [
    ("COc1ccc(CCN(C)CCCC(C#N)(c2cc(OC)c(OC)c(OC)c2)C(C)C)cc1OC (stereo not shown) [D 600, methoxy verapamil, reference compound]", "PAF Acether induced wheal, Surface", "mm^2", 62.6),
    ("C[C@@H]1C(=O)O[C@H]2C[C@@]34[C@H]5C[C@@H](C(C)(C)C)[C@]36[C@@H](OC(=O)[C@@H]6O)O[C@@]4(C(=O)O5)[C@]21O [Ginkgolide A]", "PAF Acether induced wheal, Surface", "mm^2", 64.3),
    ("CC1C(=O)OC2C(O)C34C5CC(C(C)(C)C)C36C(OC(=O)C6O)OC4(C(=O)O5)C12O (stereo not shown) [Ginkgolide B]", "PAF Acether induced wheal, Surface", "mm^2", 58.5),
]

Now examine the next entry.
Problem: Please give the documented PAF Acether induced wheal, Surface of CC1C(=O)OC2C(O)C34C5OC(=O)C3(OC3OC(=O)C(O)C34C(C(C)(C)C)C5O)C12O (stereo not shown) [Ginkgolide C]
Result: 68.1

###

- Tested on: human PRP
- TEST_SUMMARY: Inhibition of PAF Acether-induced PA, human PRP in vitro
- Format: cell-based
- CONDITION_DETAILS: PAF Acether 100 nM, read-out: IC Doses (PAF Acether-induced PA, human PRP)
For each entry below, report its pIC50 value.
Give bare numbers, as −log10 of the molar value.

These recorded examples may help you get a feel for the data.
# MOLECULE, SYSTEM_NAME, pIC50
records = [
    ("C[C@@H]1C(=O)O[C@H]2C[C@@]34[C@H]5C[C@@H](C(C)(C)C)[C@]36[C@@H](OC(=O)[C@@H]6O)O[C@@]4(C(=O)O5)[C@]21O [Ginkgolide A]", "human PRP", 4.05),
    ("C=CCC1=C[C@@]2(OC)C(=CC1=O)O[C@H](c1ccc(OC)c(OC)c1)[C@H]2C [Kadsurenone, kadsurenone, reference compound]", "human PRP", 3.89),
    ("CC1C(=O)OC2C(O)C34C5OC(=O)C3(OC3OC(=O)C(O)C34C(C(C)(C)C)C5O)C12O (stereo not shown) [Ginkgolide C]", "human PRP", 3.82),
]

Now examine the next entry.
Problem: Please give the documented pIC50 of CC1C(=O)OC2C(O)C34C5CC(C(C)(C)C)C36C(OC(=O)C6O)OC4(C(=O)O5)C12O (stereo not shown) [Ginkgolide B]
Result: 4.25
